- Test system: H2122 (K-RAS G12C) cells
- test-description: MTT cell viability assay, 72 h
- Format: cell-based
- details: Homo sapiens, NCI-H2122
- Procedure: A549 (K-RAS^G12S), H358 (K-RAS^G12C), H2122 (K-RAS^G12C) and CCD19-Lu cells were obtained from the American Type Culture Collection and cultured in an environment of 5% CO2 at 37° C. in RPMI-1640 medium supplemented with 10% fetal bovine serum (FBS), 100 units/mL penicillin, and 100 μg/mL streptomycin. […]
quantity-measured: IC50

**Q:** Find the recorded IC50 belonging to CC(C)(C)c1cc2oc3c(c2c(/C=N/NC(=O)c2ccc(O)cc2O)c1O)CCCC3 and report it.
**A:** 3.35 µM
